Hello, the source for this data is patent US20160002273A1, in case you need it.

Molecular target: SIRT2 (Homo sapiens, UniProt Q8IXJ6)
Sequence (Q8IXJ6 whole entry): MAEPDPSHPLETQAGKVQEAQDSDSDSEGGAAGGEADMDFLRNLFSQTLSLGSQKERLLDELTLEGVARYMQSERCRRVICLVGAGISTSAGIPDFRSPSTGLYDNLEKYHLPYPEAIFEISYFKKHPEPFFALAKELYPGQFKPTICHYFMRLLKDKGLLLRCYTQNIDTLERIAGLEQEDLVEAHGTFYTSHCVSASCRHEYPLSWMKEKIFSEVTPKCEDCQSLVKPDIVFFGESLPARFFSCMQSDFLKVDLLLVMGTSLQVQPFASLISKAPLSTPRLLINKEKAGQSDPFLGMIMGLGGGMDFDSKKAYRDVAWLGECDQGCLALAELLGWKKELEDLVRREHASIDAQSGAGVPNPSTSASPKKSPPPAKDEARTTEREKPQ
Experiment: SIRT2 deacetylation of Trp 5-mer peptide, OAADPr mass spec assay
Type: biochemical
Set-up: His-SIRT2(1-389)
Conditions: Trp 5-mer peptide; class symbols; read-out: Trp SIRT2_IC50
pIC50: −log10 of the molar value.
READOUT TYPE: pIC50

> print(dat)
                                  compound                   experimental.target  recorded.result
1  NC(=O)c1cc2ncnc(N3CCC(C4CCNCC4)CC3)c2o1  SIRT2 (Homo sapiens, UniProt Q8IXJ6)           < 5.00
2    Cc1nc(N2CCC(CCO)CC2)c2sc(C(N)=O)cc2n1  SIRT2 (Homo sapiens, UniProt Q8IXJ6)     5.00 to 6.00
3  CC(=O)NCC1CCN(c2ncnc3cc(C(N)=O)sc23)CC1  SIRT2 (Homo sapiens, UniProt Q8IXJ6)     5.00 to 6.00
4  O=C(O)c1cc2ncnc(N3CCC(CN4CCCC4)CC3)c2s1  SIRT2 (Homo sapiens, UniProt Q8IXJ6)           < 5.00
5  NC(=O)c1cc2nccc(N3CCC(CN4CCCC4)CC3)c2s1  SIRT2 (Homo sapiens, UniProt Q8IXJ6)           > 6.00

Dear colleague, could you send me pIC50 for each of the items below? Thanks.
1. Cc1nc(N2CCN(CCNS(C)(=O)=O)CC2)c2sc(C(N)=O)cc2n1
2. NC(=O)c1cc2ncnc(N3CCC(CCNC(=O)c4cccs4)CC3)c2s1

Reply |
1: 5.00 to 6.00; 2: > 6.00

----------
Target: SIRT1 (Homo sapiens, UniProt Q96EB6)
Sequence (Q96EB6 1-747): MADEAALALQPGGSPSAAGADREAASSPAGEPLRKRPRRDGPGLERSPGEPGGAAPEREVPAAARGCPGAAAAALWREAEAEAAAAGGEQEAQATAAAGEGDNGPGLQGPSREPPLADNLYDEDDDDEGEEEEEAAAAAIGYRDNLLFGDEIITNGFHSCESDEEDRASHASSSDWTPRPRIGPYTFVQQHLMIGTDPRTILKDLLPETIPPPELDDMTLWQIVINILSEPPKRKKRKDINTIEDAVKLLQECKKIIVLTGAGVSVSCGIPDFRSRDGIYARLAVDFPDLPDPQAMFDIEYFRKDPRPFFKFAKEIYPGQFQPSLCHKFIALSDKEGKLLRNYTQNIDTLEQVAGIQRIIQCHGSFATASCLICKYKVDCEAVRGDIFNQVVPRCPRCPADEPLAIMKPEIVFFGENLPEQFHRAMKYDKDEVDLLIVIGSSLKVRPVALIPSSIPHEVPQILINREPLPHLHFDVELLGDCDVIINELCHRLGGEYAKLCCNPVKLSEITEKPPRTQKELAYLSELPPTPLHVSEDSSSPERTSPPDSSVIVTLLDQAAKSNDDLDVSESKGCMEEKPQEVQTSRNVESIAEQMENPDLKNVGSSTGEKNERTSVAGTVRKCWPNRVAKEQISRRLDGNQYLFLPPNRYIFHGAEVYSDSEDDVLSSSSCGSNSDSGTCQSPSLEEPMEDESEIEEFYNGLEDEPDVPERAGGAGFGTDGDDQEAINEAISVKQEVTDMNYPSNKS
Test: SIRT1 deacetylation of Trp 5-mer peptide, OAADPr mass spec assay
Conditions: Trp SIRT1_IC50, Trp 5-mer peptide; class symbols
pIC50: −log10 of the molar value.
READOUT TYPE: pIC50

Below are worked cases with known answers.
> print(dat)
                                   molecule                   experimental.target  readout.type  recorded.result
1  Cc1nc(N2CCN(CCN3CCCC3)CC2)c2sc(C(N)=O)cc2n1 [Compound 150]  SIRT1 (Homo sapiens, UniProt Q96EB6)         pIC50     5.00 to 6.00
2  CC(C)(C)C(=O)NCCC1CCN(c2ncnc3cc(C(N)=O)oc23)CC1 [Compound 36]  SIRT1 (Homo sapiens, UniProt Q96EB6)         pIC50           > 6.00
3  Cc1nc(N2CCC(CCNC(=O)C(C)(C)C)CC2)c2sc(C(N)=O)cc2n1 [Compound 159]  SIRT1 (Homo sapiens, UniProt Q96EB6)         pIC50           > 6.00

Batch of 5 molecules: report pIC50 for each.
1. CC(C)(C)C(=O)NCCC1CCN(c2ncnc3cc(C(N)=O)sc23)CC1 [Compound 28]
2. CCNC(=O)c1ccc(C(=O)NCCC2CCN(c3ncnc4ccsc34)CC2)s1 [Compound 193]
3. CC(=S)NCCN1CCN(c2ncnc3cc(C(N)=O)sc23)CC1 [Compound 26]
4. Cc1nc(N2CCN(CCNC(=O)OC(C)(C)C)CC2)c2sc(C(N)=O)cc2n1 [Compound 149]
5. Cc1nc(N2CCC(CCN)CC2)c2sc(C(N)=O)cc2n1 [Compound 152]

Reply |
["> 6.00", "< 5.00", "> 6.00", "< 5.00", "< 5.00"]

Please supply pIC50 for each of the following items, keeping them in order.
1. CCNC(=O)c1cc(Br)cc(C(=O)NCCC2CCN(c3ncnc4cc(C(N)=O)sc34)CC2)c1 [Compound 136]
2. CC(C)(C)OC(=O)NCCN1CCN(c2ncnc3cc(C(N)=O)oc23)CC1 [Compound 86]

Reply |
["> 6.00", "> 6.00"]
